B1: BTBD10 (parent)
chain: FVYENAKEGARNIRTSERVTLIVD

- Variants of: B1
- experimentSummary: protein stability index of a GFP-peptide fusion (GPS, HEK-293T) (PSI 1-6); higher = more stable;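 also: lentivirally expressed fusions sorted by FACS into six bins by GFP to DsRed ratio, PSI derived from sequencing read proportions per bin multiplied by bin number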
- particulars: c terminus: a fixed tail appended
propertyName: protein stability index

Here's what some known entries look like.
E17A: 2.17
D24Q: 2.03
T15Y: 1.39
E17P: 1.54
I13P: 2.21

I am curious: what protein stability index value has been reported for `N5H` ?
2.19

Input `V23Q`
2.47

Input `E8G`
1.86

Input `Y3G`
2.35

Input `V19S`
2
